Hey, just so you know, these numbers are from patent US20210386367A1.

MIC by entry:
system: Streptococcus spp. spontaneous mutants; experiment: organism not typed; assay type: cell-based; details: S. agaloctiae ATCC 13813; selected on rifaximin 4X MIC; Colony A
reported metric: MIC (µg/mL)

smiles text	censoring sign	reported value
COc1c(N2C[C@@H]3CCCN[C@@H]3C2)c(F)cc2c(=O)c(C(=O)O)cn(C3CC3)c12	=	0.06
CC[C@H]1OC(=O)[C@H](C)[C@@H](O[C@H]2C[C@@](C)(OC)[C@@H](O)[C@H](C)O2)[C@H](C)[C@@H](O[C@@H]2O[C@H](C)C[C@H](N(C)C)[C@H]2O)[C@](C)(O)C[C@@H](C)CN(C)[C@H](C)[C@@H](O)[C@]1(C)O	=	0.015
CN(C)[C@@H]1C(O)=C(C(N)=O)C(=O)[C@@]2(O)C(O)=C3C(=O)c4c(O)cccc4[C@@](C)(O)[C@H]3C[C@@H]12	=	0.12
CO[C@H]1/C=C/O[C@@]2(C)Oc3c(C)c(O)c4c(O)c(c5c(nc6cc(C)ccn65)c4c3C2=O)NC(=O)/C(C)=C\C=C\[C@H](C)[C@H](O)[C@@H](C)[C@@H](O)[C@@H](C)[C@H](OC(C)=O)[C@@H]1C	>	8
CCC[C@@H]1C[C@@H](C(=O)N[C@@H]([C@H]2O[C@H](SC)[C@H](O)[C@@H](O)[C@H]2O)[C@H](C)Cl)N(C)C1	=	0.03

====

tested on: Pseudomonas aeruginosa; test: Broth microdilution MIC, 50 clinical isolates; type: cell-based; settings: 8 μg/mL
Number of test isolates at MIC by entry:
reported metric: Number of test isolates at MIC

smiles text	reported metric	reported value
CO[C@H]1/C=C/O[C@@]2(C)Oc3c(C)c(O)c4c(O)c(c5c(nc6cc(C)ccn65)c4c3C2=O)NC(=O)/C(C)=C\C=C\[C@H](C)[C@H](O)[C@@H](C)[C@@H](O)[C@@H](C)[C@H](OC(C)=O)[C@@H]1C	Number of test isolates at MIC	25
COc1c(N2C[C@@H]3CCCN[C@@H]3C2)c(F)cc2c(=O)c(C(=O)O)cn(C3CC3)c12	Number of test isolates at MIC	6
C[C@@H](O)[C@H]1C(=O)N2C(C(=O)O)=C(S[C@@H]3CN[C@H](C(=O)N(C)C)C3)[C@H](C)[C@H]12	Number of test isolates at MIC	4
CO/N=C(\C(=O)N[C@@H]1C(=O)N2C(C(=O)O)=C(CSc3nc(=O)c(=O)[nH]n3C)CS[C@H]12)c1csc(N)n1	Number of test isolates at MIC	4

====

system: Bacteroides spp. spontaneous mutants; assay: Broth microdilution MIC of spontaneous mutants; format: cell-based; conditions: B. ovatus MMX 3503; selected on rifaximin 4X MIC; Colony B

smiles text	censoring sign	MIC [µg/mL]
COc1c(N2C[C@@H]3CCCN[C@@H]3C2)c(F)cc2c(=O)c(C(=O)O)cn(C3CC3)c12	=	0.5
CO[C@H]1/C=C/O[C@@]2(C)Oc3c(C)c(O)c4c(O)c(c5c(nc6cc(C)ccn65)c4c3C2=O)NC(=O)/C(C)=C\C=C\[C@H](C)[C@H](O)[C@@H](C)[C@@H](O)[C@@H](C)[C@H](OC(C)=O)[C@@H]1C	>	64
CCC[C@@H]1C[C@@H](C(=O)N[C@@H]([C@H]2O[C@H](SC)[C@H](O)[C@@H](O)[C@H]2O)[C@H](C)Cl)N(C)C1	=	1
Cc1ncc([N+](=O)[O-])n1CCO	=	0.5
